System: SF-539
PROTOCOL TEXT: NCI tumour cell line growth inhibition, 48 h
Activity calls are given as the source filed them. Cut-off read from the data, not from the text of the source: active = GI50 up to about 1.1 µM and inactive = higher.
RECORDED ENDPOINT: GI50

Sample answers from the record:
COMPOUND: CCOC(=O)/C(=C\c1ccc(F)cc1)C(C)=O
GI50: 34 µM (inactive)
//
COMPOUND: C=C1CC(C#N)(C#N)[C@@H]2CC3CCCC3[C@H]12.C=C1CC(C#N)(C#N)[C@H]2C3CCCC3C[C@@H]12 (some centres undefined)
GI50: 19.9 µM (inactive)
//
COMPOUND: CCOc1ccccc1NC(=O)C(=O)CC(=O)C1=C(C)Nc2ccccc2S1
GI50: > 100 µM (inactive)

For each listed entry, give its GI50.
1. Nc1ccc(S(=O)(=O)Nc2nc3ccccc3nc2Nc2ccc(S(N)(=O)=O)cc2)cc1
2. c1cc2n(n1)CCN2
3. CN(C)C(=O)/N=c1\ss/c(=N\C(=S)N(C)C)n1-c1ccccc1

["31.8 µM (inactive)", "646 µM (inactive)", "35.4 µM (inactive)"]

For every item in the list below, what is its measured GI50?
1. Cc1ccc(-n2cnc3c(N)nc(N)nc32)cc1
2. CC1(C)C2CCC3(OCCO3)C1C1OC12 (centres undefined)
3. CC(C)(C)c1cc2c(O)c(c1)Cc1cc(C(C#N)(Cc3ccc4ccccc4c3)Cc3ccc4ccccc4c3)cc(c1O)Cc1cc(C(C)(C)C)cc(c1O)Cc1cc(C(C#N)(Cc3ccc4ccccc4c3)Cc3ccc4ccccc4c3)cc(c1O)C2

> 100 µM (inactive)
> 100 µM (inactive)
> 100 µM (inactive)

----------
Consider the following compounds; for each one, report its GI50.
Tested on: UO-31
PROTOCOL TEXT: NCI tumour cell line growth inhibition, 48 h
Calls of active or inactive are those of the source. Cut-off read from the data, not from the text of the source: active = GI50 up to about 1.1 µM and inactive = higher.

Below, each entry is followed by its recorded GI50 result.
COMPOUND: CCOP(=O)(OCC)/C(C#N)=C/c1cc(O)ccc1O
MEAS VALUE: > 100 µM (inactive)
//
COMPOUND: CCN(CC)CCO/N=C1\CC[C@H]2[C@@H]3CC=C4C[C@@H](O)CC[C@]4(C)[C@H]3CC[C@]12C
MEAS VALUE: 15.8 µM (inactive)
//
COMPOUND: Cc1cccc(C)c1NC(=O)C(=O)C1C(=O)N(c2ccccc2)N=C1N (stereo not given)
MEAS VALUE: > 100 µM (inactive)
//
COMPOUND: N#CC(O)CCOCc1ccccc1 (stereo not given)
MEAS VALUE: 78.7 µM (inactive)

Now take the following compound into account.
Dear colleague, please send me the reported GI50 for CC1=C2C(=C[C@@](C)(CO)[C@@H]2O)C(=O)[C@](C)(O)C12CC2 [ILLUDIN] when you can.
0.0147 µM (active)

----------
So I've got a bunch of compounds here, and I need their GI50 values.
Test system: Hs-578T
PROTOCOL TEXT: NCI tumour cell line growth inhibition, 48 h
The source made the active and inactive calls. Rule as the data show it: active = GI50 up to about 1.1 µM and inactive = higher.

COMPOUND: O=C1C=CC(=O)c2c(O)nc(CBr)nc21
GI50: > 100 µM (inactive)
--
COMPOUND: CCOC(=O)c1ccc(C(=O)C(C(C)=O)C(=O)OC(C)(C)C)[nH]1 (centres undefined)
GI50: > 100 µM (inactive)
--
COMPOUND: CC(C)(Br)C(Br)CCC1(C2CO2)CO1 (centres undefined)
GI50: > 5 µM (inactive)
--
COMPOUND: CN1CCN(Cc2nc3cccc4c3c([n+]2[O-])-c2ccccc2-4)CC1
GI50: 34.9 µM (inactive)
--
COMPOUND: O=C1OC(c2ccc(O)cc2)(c2ccc(O)cc2)c2ccc(Cl)c3cccc1c23.O=C1OC(c2ccc(O)cc2)(c2ccc(O)cc2)c2cccc3c(Cl)ccc1c23
GI50: 12.1 µM (inactive)

Provide each entry's GI50 from the list below.
1. CC12CCC(O)CC1CCC1C2CCC2(C)C(C(=O)CC(O)C(F)(F)F)CCC12 (centres undefined)
2. COc1ccc(/C=C(\C#N)c2nc(-c3cc4ccccc4oc3=O)cs2)cc1
3. CCOC(=O)/C=C(/C(=O)OCC)n1ccc(=O)n(CC(=O)OCC)c1=O
4. COc1cc(N(CCC#N)CCC#N)ccc1C(/N=N/c1ccccc1C)=N\NC(=O)c1ccc(C)cc1

1. 23.9 µM (inactive)
2. 24.6 µM (inactive)
3. 4.9 µM (inactive)
4. > 100 µM (inactive)

----------
System: SF-539
PROTOCOL TEXT: NCI tumour cell line growth inhibition, 48 h
Active and inactive are the calls of the source. Rule as the data show it: active = GI50 up to about 1.1 µM and inactive = higher. Starred links: 1 amine or outer side, 2 acyl side, 3 side chain; linkers in the order of their positions; H or OH if unused. Positions of bridges follow the written chain, without caps; N, C: chain ends. Non-standard residues stand in square brackets, D forms with d. Residues, ends and D or L forms follow the SMILES beside them. ξ: configuration not given here. X11 = CCC(C)C(N[*:1])C(O)CC(=O)O[C@H](C(=O)C(C)C(=O)[*:2])C(C)C; X10 = O=C([C@@H]1CC(O)CN1[*:1])[*:2]; NMeY = CN[C@@H](Cc1ccc(O)cc1)C(=O)O; ξNMeL = CNC(CC(C)C)C(=O)O; ξT = CC(O)C(N)C(=O)O
Mark one answer only. Choices: active, inactive

Past entries and their recorded results:
MOLECULE: CC1=C2C(=C[C@@](C)(CO)[C@@H]2O)C(=O)[C@](C)(O)C12CC2 [ILLUDIN]
ASSAY TARGET: SF-539
CLASSIFICATION: active
//
MOLECULE: CCC(C)C1NC(=O)C(NC(=O)C(CC(C)C)N(C)C(=O)[C@@H]2CC(O)CN2)C(C)OC(=O)[C@H](Cc2ccc(OC)cc2)N(C)C(=O)[C@@H]2CCCN2C(=O)[C@H](CC(C)C)NC(=O)C(C)C(=O)[C@H](C(C)C)OC(=O)CC1O (stereo partly drawn) (H-[X10][ξNMeL][ξT][X11]LP[NMeY](Me); ester 3-C)
ASSAY TARGET: SF-539
CLASSIFICATION: active
//
MOLECULE: O=C(O)c1ccccc1C1c2ccc(Cl)cc2Oc2cc(Cl)ccc21
ASSAY TARGET: SF-539
CLASSIFICATION: inactive
//
MOLECULE: CO/C=C(/C(=O)OC)c1ccccc1[C@@H]1CC1c1cccc(F)c1 (stereo partly drawn)
ASSAY TARGET: SF-539
CLASSIFICATION: inactive
//
MOLECULE: O=C1CSC(c2ccc(Cl)cc2Cl)N1c1ccc(Oc2ccc(Cl)cc2)c(Cl)c1 (stereo not drawn)
ASSAY TARGET: SF-539
CLASSIFICATION: inactive
//
MOLECULE: C/C(=C/c1c(C)[nH]c(=O)[nH]c1=O)C(=O)O
ASSAY TARGET: SF-539
CLASSIFICATION: inactive

How did this test come out for "N#Cc1ccc(-c2nc3c(N)nc(-c4ccccc4)nc3o2)cc1" ?
inactive

How did this test come out for "O=C(O)c1ccccc1-c1ccccc1C(=O)Nc1ccc2c(c1)Cc1cc(F)ccc1-2" ?
inactive

----------
System: HL-60
PROTOCOL TEXT: NCI tumour cell line growth inhibition, 48 h
Activity calls are given as the source filed them. No stated cut-off is given here; in the data, active = GI50 up to about 1.1 µM and inactive = higher.
RECORDED ENDPOINT: GI50

Solved entries:
MOLECULE: COc1c(C(=O)CC2c3c(cc4oc(C)cc(=O)c4c3OC)OC(=N)C2c2nc3ccccc3[nH]2)c(O)c(OC)c2occc12 (stereo not given)
GI50: > 100 µM (inactive)

MOLECULE: CCc1nc(N)nc(N)c1-c1ccc(Cl)c(Cl)c1
GI50: > 100 µM (inactive)

MOLECULE: CCN(CC)c1ccc2cc(C(=O)Nc3nc(C45CC6CC(CC(C6)C4)C5)cs3)c(=O)oc2c1
GI50: > 100 µM (inactive)

MOLECULE: O=C(CCc1ccc(O)c(O)c1)OCCc1ccccc1
GI50: 3.85 µM (inactive)

Report GI50 for "Cc1c(C)c2ccc3oc4ccccc4c3c2oc1=O"
> 100 µM (inactive)

----------
System: A549
PROTOCOL TEXT: NCI tumour cell line growth inhibition, 48 h
The source made the active and inactive calls. Cut-off read from the data, not from the text of the source: active = GI50 up to about 1.1 µM and inactive = higher.
RECORDED ENDPOINT: GI50

COMPOUND: Nc1nc(N)c2ncn(-c3ccccc3)c2n1
GI50: 43.6 µM (inactive)

Field: GI50. Fill in for each record below.
1. Clc1ccc(C2=CCN3CC=C(c4ccc(Cl)cc4)C23)cc1
2. COc1ccc2c(c1)CC1Cc3cc(OC)c(OC)cc3CN1CC2 (centres undefined)
3. O=C(CC(=O)c1cccc2ccccc12)C(=O)Nc1ccc(Cl)cc1

1. 14.2 µM (inactive)
2. 42.4 µM (inactive)
3. > 100 µM (inactive)

# per-item lookup of GI50; items listed below
1. O=C1C(=O)N(c2ccc(Cl)cc2Cl)C(=O)C(=O)C1c1nc2ccccc2s1
2. C#CCOC(=O)C(=[N+]=[N-])C(=O)CC(C)C
3. CC(=O)OC1COC(n2c(N)c(C#N)c(C)c(C#N)c2=S)C(OC(C)=O)C1OC(C)=O (centres undefined)
4. CC(C)(C)c1ccc(-n2c3nc(=O)n(-c4ccccc4CO)c(=O)c-3cc3ccccc32)cc1

> 100 µM (inactive)
> 10 µM (inactive)
> 100 µM (inactive)
76.2 µM (inactive)
